Reported IC50 values are given for each entry in this list.
# experimentNotes: Cytotoxicity against human HuH7 cells after 48 hrs by MTT assay
# Type: functional, cell-based
# conditionSet: Huh-7, 48 h

Here are 3 compounds together with their reported answers.
I'd like to know its IC50. The compound in question is COc1ccc(Nc2cc(N3CCNCC3)ncn2)cc1 46 µM

I'd like to know its IC50. The compound in question is COc1cc(/C=C/C(=O)CC(=O)/C=C/c2ccc(O)c(OC)c2)ccc1O 48 µM

I'd like to know its IC50. The compound in question is Nc1cccc(Oc2cc(Oc3cccc4cccnc34)ncn2)c1 116 µM

From here, focus on the item given below.
I'd like to know its IC50. The compound in question is N#Cc1cccnc1N1CCN(c2cc(Oc3cccc4cccnc34)ncn2)CC1 104 µM

====

# Tested on: HEK293
# experimentNotes: Cytotoxicity against human HEK293 cells after 48 hrs by MTT assay
# Type: cell-based
# conditionSet: HEK293, 48 h
Reported IC50 values are given for each entry in this list.

Here are 2 compounds together with their reported answers.
I'd like to know its IC50. The compound in question is COc1ccc(Nc2cc(N3CCNCC3)ncn2)cc1 > 400 µM

I'd like to know its IC50. The compound in question is Nc1cccc(Oc2cc(Oc3cccc4cccnc34)ncn2)c1 400 µM

Next:
I'd like to know its IC50. The compound in question is N#Cc1cccnc1N1CCN(c2cc(Oc3cccc4cccnc34)ncn2)CC1 > 400 µM

I'd like to know its IC50. The compound in question is COc1cc(/C=C/C(=O)CC(=O)/C=C/c2ccc(O)c(OC)c2)ccc1O > 400 µM
